# measured target: human SIRPαBIT expressed on cells (human) (UniProt P78324)
# Sequence (P78324 31-504): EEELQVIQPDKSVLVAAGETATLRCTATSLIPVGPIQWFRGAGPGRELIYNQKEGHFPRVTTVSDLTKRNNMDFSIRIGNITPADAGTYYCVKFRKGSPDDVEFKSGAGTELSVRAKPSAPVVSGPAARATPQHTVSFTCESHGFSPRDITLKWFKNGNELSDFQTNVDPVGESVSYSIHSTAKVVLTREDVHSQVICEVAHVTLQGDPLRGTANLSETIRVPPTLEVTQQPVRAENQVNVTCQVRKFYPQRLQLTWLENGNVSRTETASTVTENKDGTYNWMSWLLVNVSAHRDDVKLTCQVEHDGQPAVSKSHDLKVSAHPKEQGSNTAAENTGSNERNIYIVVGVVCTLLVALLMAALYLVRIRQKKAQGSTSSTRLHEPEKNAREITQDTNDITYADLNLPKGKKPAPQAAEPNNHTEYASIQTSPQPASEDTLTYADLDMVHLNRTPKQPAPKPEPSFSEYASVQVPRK
# protocol summary: flow cytometry, ExpiCHO-S cells
This listing pairs binders with measured EC50.
Please state the figure in µg/mL; there is no need to write the unit.

For orientation, consider the following solved cases.
- binder: "anti-SIRPα antibody 13 humanized (antibody, human IgG1, V domains shown, Humanized, human IgG1 LALA / kappa) VH: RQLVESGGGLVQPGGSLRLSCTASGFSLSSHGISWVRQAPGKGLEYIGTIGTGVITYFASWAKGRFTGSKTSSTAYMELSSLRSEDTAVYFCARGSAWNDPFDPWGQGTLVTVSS VL: AIQMTQSPSSLSASVGDRVTITCQASQSVYGNNDLAWYQQKPGKAPKLLIYLASTLATGVPSRFSGSGSGTDFTLTISSLQPEDFATYYCLGGGDDEADNVFGGGTKVEIKR"
  experimental value: 0.23
- binder: "anti-SIRPα antibody 12 humanized (antibody, human IgG1, kappa, L234A L235A, V domains shown, Humanized, human IgG1 LALA / kappa) VH: VQLVESGGRLVQPGTPLTLSCTVSGFSLSSYVMGWFRQAPGKGLEYIGIISSSGSPYYASWVNGRFTISKTSTTMDLKMNSLRSEDTATYFCARVGPLGVDYFNIWGPGTLVTVSS VL: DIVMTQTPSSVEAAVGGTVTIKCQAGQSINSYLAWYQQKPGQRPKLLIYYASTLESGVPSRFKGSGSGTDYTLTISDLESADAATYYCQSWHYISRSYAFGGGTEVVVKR"
  experimental value: 0.46

Pending binder:
**Query** # lookup: EC50 of anti-SIRPα antibody 7 (antibody, human IgG1, kappa, L234A L235A, V domains shown, Chimeric: rabbit variable regions on human IgG1 LALA / kappa; also called chimeric antibody 7) VH: RSVEESGGRLVTPGTPLTLTCTVSGFSLSSHGISWVRQAPGKGLEYIGTIGTGVITYFASWAKGRFTGSKTSTTVDLKITSPTTEDTATYFCARGSAWNDPFDPWGPGTLVTVSS VL: ALVMTQTPASVSAAVGGTVTTKCQASQSVYGNNDLAWYQHKPGQPPKLLIYLASTLATGVPSRFSGSGSGTQFTLTITGVQSDDAATYYCLGGGDDEADNVFGGGTEVVVKR
**Result** 0.21
